- testedOn: Vasopressin V2 receptor (Homo sapiens)
- Sequence (P30518 whole entry): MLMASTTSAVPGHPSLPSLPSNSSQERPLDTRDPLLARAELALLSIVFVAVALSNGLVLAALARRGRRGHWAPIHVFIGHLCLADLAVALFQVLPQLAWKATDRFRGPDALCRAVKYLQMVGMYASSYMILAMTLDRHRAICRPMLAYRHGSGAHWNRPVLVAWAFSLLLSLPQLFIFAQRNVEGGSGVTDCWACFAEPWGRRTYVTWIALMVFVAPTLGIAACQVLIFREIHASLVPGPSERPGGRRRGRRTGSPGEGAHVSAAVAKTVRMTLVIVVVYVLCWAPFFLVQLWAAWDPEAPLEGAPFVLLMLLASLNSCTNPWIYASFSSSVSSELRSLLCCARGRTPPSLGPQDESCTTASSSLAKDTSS
- procedureSummary: Effective concentration for human Vasopressin V2 receptor
Strictly below 1000 nM in EC50: Yes. Otherwise: No.

Bench note: check whether CO[C@@H]1C[C@@H](C(=O)N2CCCN(C)CC2)N(C(=O)NCc2ccc(C(=O)N3CCCCc4sccc43)cc2Cl)C1 shows EC50 below 1000 nM
No

Bench note: check whether CO[C@@H]1C[C@@H](C(=O)NCCc2ccccn2)N(C(=O)NCc2ccc(C(=O)N3CCCCc4sccc43)cc2Cl)C1 shows EC50 below 1000 nM
Yes

Bench note: check whether CN1CCCN(C(=S)[C@@H]2CCCN2C(=O)NCc2ccc(C(=O)N3CCCCc4sccc43)cc2Cl)CC1 shows EC50 below 1000 nM
No

Bench note: check whether CO[C@@H]1C[C@@H](C(=O)N2CCC(N3CCCC3)CC2)N(C(=O)NCc2ccc(C(=O)N3CCCCc4sccc43)cc2Cl)C1 shows EC50 below 1000 nM
No

Bench note: check whether CO[C@@H]1C[C@@H](C(=S)NCCc2ccccn2)N(C(=O)NCc2ccc(C(=O)N3CCCCc4sccc43)cc2Cl)C1 shows EC50 below 1000 nM
Yes

Bench note: check whether CO[C@@H]1C[C@@H](C(=O)N2CCC(N3CCCCC3)CC2)N(C(=O)NCc2ccc(C(=O)N3CCCCc4sccc43)cc2Cl)C1 shows EC50 below 1000 nM
No

Bench note: check whether CO[C@@H]1C[C@@H](C(=S)N2CCC(N3CCCC3)CC2)N(C(=O)NCc2ccc(C(=O)N3CCCCc4sccc43)cc2Cl)C1 shows EC50 below 1000 nM
Yes

Bench note: check whether Cc1cc(C(=O)N2CCCCc3sccc32)ccc1CNC(=O)N1CCC[C@H]1C(=S)N1CCCN(C)CC1 shows EC50 below 1000 nM
Yes
